Origin of the recorded values: paper PMC10302166

Target: T1, ERα-Y537S LBD-F-strep (PKA-responsive), without 14-3-3ζ (human (from the printed UniProt entry), UniProt P03372 302-595, S305A | Y537S | F591R | P592R)
T1 construct: the methods list ERα(PKA)-strep and ERα(PKA)-pT594-strep 'for WT ERα and Y537S mutant'; also called apo ERα-Y537S
T1 sequence (looked up): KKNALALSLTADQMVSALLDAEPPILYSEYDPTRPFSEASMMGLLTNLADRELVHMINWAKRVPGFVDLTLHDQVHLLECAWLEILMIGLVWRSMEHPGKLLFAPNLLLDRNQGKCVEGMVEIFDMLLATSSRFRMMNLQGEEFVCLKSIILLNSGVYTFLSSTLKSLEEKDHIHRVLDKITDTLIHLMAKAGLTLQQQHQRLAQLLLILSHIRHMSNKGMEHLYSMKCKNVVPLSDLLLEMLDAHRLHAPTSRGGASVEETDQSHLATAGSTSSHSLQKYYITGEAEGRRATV
Assay: fluorescence polarisation; fluorescence anisotropy; ERα or complex titrated (2-fold series from 40 μM ERα) to 20 nM fluorescein-labeled SRC1 peptide; DMSO control; 20 mM HEPES pH 7.5, 150 mM NaCl, 10 mM MgCl2, 0.1% Tween20, 0.1% BSA; room temperature; apparent KD (4PL fit)
Details: both partners purified
Where no end group is shown, it is not given here.
measured-property: pKd
Bear in mind: pKd is minus log10 of a mol/L concentration; give just that figure.

Exercise: What measured pKd goes with LTERHKILHRLLQEGSPSD (also: fluorescein (FITC) label, position not given here) [fluorescein-labeled SRC-1 cofactor peptide (LXXLL motif of SRC-1/NCoA-1)] ?
Solution: 5.77
